- ASSAY_REMARKS: AUClast in Sprague-Dawley rat at 10 mg/kg, iv measured after up to 24 hrs by LC-MS/MS analysis
- Format: ADME, organism-based
- Set-up: time < 24 hrs, dose 10 mg/kg, route iv
- TEST_CONTEXT: in vivo
OBSERVATION_TYPE: AUC(0-t) at 24 h (ng·h/mL)
Your answer should be a plain number; it is taken to be in ng·h/mL.

INPUT: Consider the compound O=C[C@H](C[C@@H]1CCNC1=O)NC(=O)[C@H](CC1CC1)NC(=O)c1cc2ccccc2[nH]1 and give its measured AUC(0-t) at 24 h.
OUTPUT: 41500

Origin of values: ChEMBL document CHEMBL5136972
